System: Malme-3M
Test: Cytotoxicity against human MALME-3M cells assessed as cell growth at 10 uM after 48 hrs by sulforhodamine B assay relative to control
Assay type: functional
Conditions: read-out: Activity
Below, each entry is listed alongside its reported growth at 10 µM.
Provide the reading as a plain figure in %.

Look over these answered cases.
smilesNotation: COc1ccc(-c2cc(/C=C/C(=O)c3cc(OC)c(OC)c(OC)c3)[nH]n2)cc1OC
systemName: Malme-3M
quantitativeReadout: -25
//
smilesNotation: COc1ccc(-c2cc(/C=C/C(=O)c3ccc(N)cc3)[nH]n2)cc1
systemName: Malme-3M
quantitativeReadout: -23
//
smilesNotation: COc1cc(-c2cc(/C=C/C(=O)c3ccc4c(c3)OCO4)[nH]n2)cc(OC)c1OC
systemName: Malme-3M
quantitativeReadout: 26
//
smilesNotation: COc1cc(C(=O)/C=C/c2cc(-c3cc(OC)c(OC)c(OC)c3)n[nH]2)cc(OC)c1OC
systemName: Malme-3M
quantitativeReadout: -57

Query molecule follows.
Ask: Look up and state reported growth at 10 µM for COc1cc(-c2cc(/C=C/C(=O)c3ccc(F)c(F)c3)[nH]n2)cc(OC)c1OC
Result: -3

* * *

Tested on: Malme-3M
Assay: Cytotoxicity against human MALME-3M cells assessed as cell growth at 1 uM after 48 hrs by sulforhodamine B assay relative to control
Assay type: functional
Conditions: read-out: Activity
Below, each entry is listed alongside its reported growth at 1 µM.
Provide the reading as a plain figure in %.

smilesNotation: COc1cc(-c2cc(/C=C/C(=O)c3ccc(N)cc3)[nH]n2)cc(OC)c1OC
unitAbbreviation: %
growth at 1 µM: 93

Ask: Report growth at 1 µM on Malme-3M for this entry: COc1ccc(C(=O)/C=C/c2cc(-c3ccc4c(c3)OCO4)n[nH]2)cc1OC
Result: 106

Ask: Report growth at 1 µM on Malme-3M for this entry: COc1cc(C(=O)/C=C/c2cc(-c3ccc4c(c3)OCO4)n[nH]2)cc(OC)c1OC
Result: 83

Ask: Report growth at 1 µM on Malme-3M for this entry: COc1ccc(-c2cc(/C=C/C(=O)c3ccc(N)cc3)[nH]n2)cc1
Result: 87

* * *

Test system: UACC-257
Test: Cytotoxicity against human UACC257 cells assessed as growth inhibition after 48 hrs by sulforhodamine B assay
Assay type: functional
Conditions: UACC-257, 48 h
Below, each entry is listed alongside its reported TGI.
Kindly report the value followed by its unit.

Look over these answered cases.
smilesNotation: COc1cc2c(cc1OC)C(=O)/C(=C/c1cc(-c3ccc4c(c3)OCO4)n[nH]1)C2
readoutLabel: TGI
result: 3.13 µM

smilesNotation: COc1ccc(C(=O)/C=C/c2cc(-c3ccc(OC)c(OC)c3)n[nH]2)cc1OC
readoutLabel: TGI
result: 5.02 µM

smilesNotation: COc1ccc(C(=O)/C=C/c2cc(-c3cc(OC)c(OC)c(OC)c3)n[nH]2)cc1
readoutLabel: TGI
result: 3.74 µM

smilesNotation: COc1ccc(-c2cc(/C=C/C(=O)c3ccc(N)cc3)[nH]n2)cc1OC
readoutLabel: TGI
result: 19.5 µM

smilesNotation: COc1cc(-c2cc(/C=C/C(=O)c3ccc4c(c3)OCO4)[nH]n2)cc(OC)c1OC
readoutLabel: TGI
result: 40.3 µM

Query compound follows.
Ask: Look up and state reported TGI for COc1ccc(-c2cc(/C=C/C(=O)c3ccc(OC)c(OC)c3)[nH]n2)cc1
Result: 3.65 µM

Data origin: ChEMBL document CHEMBL4138123
